- assaySummary: Equilibrium solubility of compound at pH 1.2 by HPLC analysis
- Format: physicochemical
- measurementConditions: buffer
measuredEndpoint: solubility thermodynamic (µM)
Kindly answer with a numeric value in µM, unit omitted.

Q. Give its solubility thermodynamic value. Item: Cn1nncc1-c1cnn([C@H](CCOC(F)F)c2ccc(-c3c(-n4cc(Cl)nn4)ccc(Cl)c3F)c[n+]2[O-])c1
A. 81

---

- assaySummary: Stability in human liver microsomes assessed as half-life
- Format: ADME, Microsome
measuredEndpoint: half-life (min)
Write it as a number; the unit min goes unstated.

Examples from the recorded data:
compound	readoutUnit	half-life
COCC[C@H](c1ccc(-c2c(-n3cc(Cl)nn3)ccc(Cl)c2F)c[n+]1[O-])n1cc(-c2cnnn2C)cn1	min	54
Cn1cncc1-c1cnn([C@H](CC2CC2)c2ccc(-c3c(-n4cnnn4)ccc(Cl)c3F)c[n+]2[O-])c1	min	36
Cn1nncc1-c1cnn([C@H](Cc2ccc(F)cc2)c2ccc(-c3c(-n4cc(Cl)nn4)ccc(Cl)c3F)c[n+]2[O-])c1	min	88

Q. Bench note: what half-life did Cn1nccc1-c1cnn(C(CC2CC2)c2ccc(-c3c(-n4cnnn4)ccc(Cl)c3F)c[n+]2[O-])c1 (racemic) show?
A. 16

---

Reported half-life values follow for various molecules
- assaySummary: Stability in rat liver microsomes assessed as half-life
- Format: ADME, Microsome

Reference set (6 entries):
molecule	half-life
COCC[C@H](c1ccc(-c2c(-n3cnnn3)ccc(Cl)c2F)c[n+]1[O-])n1cc(-c2cnnn2C)cn1	50 min
Cn1nncc1-c1cnn([C@H](Cc2ccc(F)cc2)c2ccc(-c3c(-n4cnnn4)ccc(Cl)c3F)c[n+]2[O-])c1	48 min
[O-][n+]1cc(-c2c(-n3cnnn3)ccc(Cl)c2F)ccc1C(CC1CC1)n1cc(-c2c(F)cncc2Cl)cn1 (racemic)	2 min
Cn1nncc1-c1cnn([C@H](CCOC(F)F)c2ccc(-c3c(-n4cc(Cl)nn4)ccc(Cl)c3F)c[n+]2[O-])c1	> 185 min
Cn1nncc1-c1cnn([C@H](CCOC(F)F)c2ccc(-c3c(-n4cnnn4)ccc(Cl)c3F)c[n+]2[O-])c1	> 185 min
Cn1nncc1-c1cnn([C@H](CCOC(F)F)c2ccc(-c3c(-n4cc(C(F)(F)F)nn4)ccc(Cl)c3F)c[n+]2[O-])c1	145 min

Q. Can you look up the measured half-life of Cc1ncsc1-c1cnn(C(CC2CC2)c2ccc(-c3c(-n4cnnn4)ccc(Cl)c3F)c[n+]2[O-])c1 (racemic) for me?
A. 18 min

---

- assaySummary: Oral bioavailability in Cynomolgus monkey at 5 mg/kg
- Type: ADME, organism-based, Macaca fascicularis
- measurementConditions: in vivo
measuredEndpoint: bioavailability (%)
Your answer is read as %, so omit the unit and give the number.

Q. Consider the compound shown here: Cn1nncc1-c1cnn([C@H](CCOC(F)F)c2ccc(-c3c(-n4cc(Cl)nn4)ccc(Cl)c3F)c[n+]2[O-])c1 What is its recorded bioavailability?
A. 43

---

- assaySummary: AUC in Beagle dog at 5 mg/kg, po
- Assay type: ADME, organism-based, Canis lupus familiaris
- Design: dose 5 mg/kg, route po
- measurementConditions: in vivo
measuredEndpoint: AUC (µM·h)
Numbers only; they are read as µM·h.

Q. Give its AUC value. Item: Cn1nncc1-c1cnn([C@H](CCOC(F)F)c2ccc(-c3c(-n4cc(Cl)nn4)ccc(Cl)c3F)c[n+]2[O-])c1
A. 14.7

---

- assaySummary: Oral bioavailability in Sprague-Dawley rat at 10 mg/kg administered as 20% HPbCD formulation
- Type: ADME, organism-based
- measurementConditions: in vivo
measuredEndpoint: bioavailability (%)
Enter your answer as a number in %; do not include the unit.

Q. Requested read-out: bioavailability. Entry: COC(=O)Nc1ccc(-c2cnn(C(CC3CC3)c3ccc(-c4cc(Cl)ccc4-n4cnnn4)c[n+]3[O-])c2)cc1 (racemic)
A. 37.3

---

- assaySummary: AUC in Cynomolgus monkey at 5 mg/kg, po
- Format: ADME, organism-based, Macaca fascicularis
- Set-up: dose 5 mg/kg, route po
- measurementConditions: in vivo
measuredEndpoint: AUC
A complete answer gives the number and then names the unit.

Q. Form field: reported AUC of Cn1nncc1-c1cnn([C@H](CCOC(F)F)c2ccc(-c3c(-n4cc(Cl)nn4)ccc(Cl)c3F)c[n+]2[O-])c1
A. 2.5 µM·h

---

- assaySummary: Half-life in Cynomolgus monkey at 5 mg/kg, po and 1 mg/kg, iv
- Type: ADME, organism-based, Macaca fascicularis
- measurementConditions: in vivo
measuredEndpoint: half-life (h)
Quick note: give the figure in h, leave out the unit.

Q. Return reported half-life; argument: Cn1nncc1-c1cnn([C@H](CCOC(F)F)c2ccc(-c3c(-n4cc(Cl)nn4)ccc(Cl)c3F)c[n+]2[O-])c1
A. 1

---

- assaySummary: AUC in Cynomolgus monkey at 1 mg/kg, iv
- Format: ADME, organism-based, Macaca fascicularis
- Design: dose 1 mg/kg, route iv
- measurementConditions: in vivo
measuredEndpoint: AUC (nM·h)
Your answer should be a plain number; it is taken to be in nM·h.

Q. # input molecule: Cn1nncc1-c1cnn([C@H](CCOC(F)F)c2ccc(-c3c(-n4cc(Cl)nn4)ccc(Cl)c3F)c[n+]2[O-])c1 ; wanted: its AUC
A. 1100

---

- assaySummary: Oral bioavailability in Sprague-Dawley rat at 10 mg/kg administered as PEG-400/water/EtOH (7:2:1) formulation
- Type: ADME, organism-based
- measurementConditions: in vivo
measuredEndpoint: bioavailability (%)
Give just the number in %; leave the unit off.

Q. Dear colleague, I am looking for the recorded bioavailability of the following compound: COC(=O)Nc1ccc(-c2cnn([C@H](CC3CC3)c3ccc(-c4c(-n5cnnn5)ccc(Cl)c4F)c[n+]3[O-])c2)cc1
A. 59.6

---

- assaySummary: AUC in Sprague-Dawley rat at 10 mg/kg, po
- Assay type: ADME, organism-based
- Parameters: dose 10 mg/kg, route po
- measurementConditions: in vivo
measuredEndpoint: AUC (µM·h)
Please reply with the bare figure in µM·h and do not write the unit itself.

Q. Quick one: AUC for Cn1nncc1-c1cnn([C@H](CCOC(F)F)c2ccc(-c3c(-n4cc(Cl)nn4)ccc(Cl)c3F)c[n+]2[O-])c1 ?
A. 10

---

- assaySummary: Half-life in Sprague-Dawley rat at 10 mg/kg, po and 2 mg/kg, iv
- Format: ADME, organism-based
- measurementConditions: in vivo
measuredEndpoint: half-life (h)
Please give a number only; it is taken to be in h.

Q. Any idea what its half-life is? The compound is Cn1nncc1-c1cnn([C@H](CCOC(F)F)c2ccc(-c3c(-n4cc(Cl)nn4)ccc(Cl)c3F)c[n+]2[O-])c1
A. 1.4

---

- assaySummary: AUC in Sprague-Dawley rat at 2 mg/kg, iv
- Assay type: ADME, organism-based
- Parameters: dose 2 mg/kg, route iv
- measurementConditions: in vivo
measuredEndpoint: AUC (µM·h)
Answer format: numeric, µM·h implied, no suffix.

Q. Consider the molecule Cn1nncc1-c1cnn([C@H](CCOC(F)F)c2ccc(-c3c(-n4cc(Cl)nn4)ccc(Cl)c3F)c[n+]2[O-])c1 and give its measured AUC.
A. 5.5

---

- assaySummary: AUC in Beagle dog at 1 mg/kg, iv
- Assay type: ADME, organism-based, Canis lupus familiaris
- Design: dose 1 mg/kg, route iv
- measurementConditions: in vivo
measuredEndpoint: AUC
The number alone won't do; follow it with the unit.

Q. Would you kindly share the measured AUC for Cn1nncc1-c1cnn([C@H](CCOC(F)F)c2ccc(-c3c(-n4cc(Cl)nn4)ccc(Cl)c3F)c[n+]2[O-])c1 ?
A. 3.7 µM·h

---

- assaySummary: Oral bioavailability in Beagle dog at 5 mg/kg
- Type: ADME, organism-based, Canis lupus familiaris
- measurementConditions: in vivo
measuredEndpoint: bioavailability (%)
Reply with just the number (in %).

Q. Endpoint output: bioavailability of Cn1nncc1-c1cnn([C@H](CCOC(F)F)c2ccc(-c3c(-n4cc(Cl)nn4)ccc(Cl)c3F)c[n+]2[O-])c1 . Value?
A. 80.5

---

- assaySummary: Oral Bioavailability in Sprague-Dawley rat at 10 mg/kg
- Format: ADME, organism-based
- measurementConditions: in vivo
measuredEndpoint: bioavailability (%)
The response must be a number in % with no trailing unit.

Q. bioavailability for Cn1nncc1-c1cnn([C@H](CCOC(F)F)c2ccc(-c3c(-n4cc(Cl)nn4)ccc(Cl)c3F)c[n+]2[O-])c1 ?
A. 36.4

---

- assaySummary: Drug concentration in plasma of anesthetized New Zealand White rabbit model of AV shunt-induced thrombosis at […], administered as iv bolus dose and subsequently followed by 0.8 mg/kg/hr as iv infusion from 20 min prior to 40 min after establishment of AV shunt by LC-MS/MS analysis
- Assay type: ADME, organism-based, Oryctolagus cuniculus
- measurementConditions: time 60 min
measuredEndpoint: concentration at 1 h
# output: numeric value plus its unit

Q. Query: concentration at 1 h; subject: Cn1nncc1-c1cnn([C@H](CCOC(F)F)c2ccc(-c3c(-n4cc(Cl)nn4)ccc(Cl)c3F)c[n+]2[O-])c1
A. 1080 nM

The reported numbers originate from ChEMBL document CHEMBL5137069.
